Reference source for all entries: patent US20100137303A1

Measured pIC50 on Msm. GyrB (Mycolicibacterium smegmatis, UniProt A0QNE0) follows.
Sequence (A0QNE0 whole entry): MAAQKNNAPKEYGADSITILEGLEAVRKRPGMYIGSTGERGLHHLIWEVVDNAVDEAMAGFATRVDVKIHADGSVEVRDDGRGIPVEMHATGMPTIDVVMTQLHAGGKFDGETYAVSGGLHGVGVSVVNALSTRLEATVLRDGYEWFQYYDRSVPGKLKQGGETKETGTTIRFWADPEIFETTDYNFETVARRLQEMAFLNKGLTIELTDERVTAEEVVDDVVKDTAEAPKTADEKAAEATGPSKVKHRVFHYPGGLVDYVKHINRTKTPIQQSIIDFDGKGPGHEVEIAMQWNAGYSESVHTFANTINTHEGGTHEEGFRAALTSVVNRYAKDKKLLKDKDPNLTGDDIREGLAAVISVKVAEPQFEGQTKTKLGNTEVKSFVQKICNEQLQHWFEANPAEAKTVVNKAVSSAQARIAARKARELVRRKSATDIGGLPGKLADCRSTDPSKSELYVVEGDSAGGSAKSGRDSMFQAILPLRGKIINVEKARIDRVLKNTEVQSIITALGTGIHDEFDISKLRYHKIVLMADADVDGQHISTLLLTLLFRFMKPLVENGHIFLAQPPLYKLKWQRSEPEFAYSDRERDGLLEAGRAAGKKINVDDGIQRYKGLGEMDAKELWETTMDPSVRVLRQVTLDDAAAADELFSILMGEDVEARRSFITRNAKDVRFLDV
Formally, pIC50 is defined as -log10 of the concentration c, with c in mol/L.

Notebook entry, Msm. GyrB (Mycolicibacterium smegmatis, UniProt A0QNE0) assay: pIC50 of CCNC(=O)Nc1nc2cc(N3CCC(O)C3)c(OCC3CCOC3)nc2s1 (stereo not shown) [Example 58] = ?
5.68

Notebook entry, Msm. GyrB (Mycolicibacterium smegmatis, UniProt A0QNE0) assay: pIC50 of C=CCNC(=O)Nc1nc2cc(-c3cncc(C(=O)NC)c3)cnc2s1 [Example 22] = ?
6.49

Notebook entry, Msm. GyrB (Mycolicibacterium smegmatis, UniProt A0QNE0) assay: pIC50 of CCNC(=O)Nc1nc2cc(-c3cncnc3)c(NCC3CCCO3)nc2s1 (stereo not shown) [Example 52] = ?
8.10
